This section presents binders with their documented pKd values.
tgt: Inadl_6, Q8NI35
Sequence (Q8NI35 1058-1167): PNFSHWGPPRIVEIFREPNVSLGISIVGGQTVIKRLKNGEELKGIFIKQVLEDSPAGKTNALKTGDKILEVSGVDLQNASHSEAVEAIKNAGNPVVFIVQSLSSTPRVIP
testSummary: holdup assay
Parameters: key: below the threshold = too weak to quantify, mostly under pKd 3.1 to 4
conditionInfo: plain residues with an end cap or a label only (N-terminal biotin on a linker: ttds)
Form rule: numeric answer, no unit written next to it.

>>> df
                          binder  measuredvalue
0  SRSRRRETAL [HPV33-E6, P06427]            3.7
1    GARVSKETPL [MAPK12, P53778]           3.55
2   NPDALPETLV [ARHGAP6, O43182]            4.3

For the next question, use this binder.
Look at this binder and give its reported pKd. SGGKRKETLV [NET1, Q7Z628] 3.6
